Listing: IC50 of selected compounds
# test target: MMP-2FL (full length Gelatinase A) (Homo sapiens)
# Sequence (P08253 110-660): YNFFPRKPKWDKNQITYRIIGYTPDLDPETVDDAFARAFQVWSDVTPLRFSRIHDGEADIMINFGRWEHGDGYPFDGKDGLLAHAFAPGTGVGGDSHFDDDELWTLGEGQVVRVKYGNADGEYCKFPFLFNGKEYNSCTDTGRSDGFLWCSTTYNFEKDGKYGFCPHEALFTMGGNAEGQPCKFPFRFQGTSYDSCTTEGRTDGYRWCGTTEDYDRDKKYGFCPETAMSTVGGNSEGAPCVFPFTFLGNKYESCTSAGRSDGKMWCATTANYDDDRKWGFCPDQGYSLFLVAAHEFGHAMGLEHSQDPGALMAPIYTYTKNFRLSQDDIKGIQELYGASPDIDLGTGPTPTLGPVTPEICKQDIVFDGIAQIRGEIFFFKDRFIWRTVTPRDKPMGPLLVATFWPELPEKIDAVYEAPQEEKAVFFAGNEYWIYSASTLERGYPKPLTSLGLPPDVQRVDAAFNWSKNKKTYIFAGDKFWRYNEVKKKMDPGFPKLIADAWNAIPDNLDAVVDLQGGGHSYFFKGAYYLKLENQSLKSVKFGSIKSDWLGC
# measurement notes: Thiopeptolide hydrolysis assay, MMP-2FL
# Assay type: biochemical
# condition summary: thiopeptolide substrate, HEPES pH 7.0, 22° C.

# compound, IC50
measured = [
    ("CC1(C)SCCN(S(=O)(=O)c2ccc(-c3ccc(Cl)cc3)cc2)[C@H]1C(=O)O [Example 29]", "> 100 µM"),
    ("CC(C)c1ccc(-c2ccc(S(=O)(=O)N3CCSC(C)(C)[C@@H]3C(=O)O)cc2)cc1 [Example 44]", "0.015 µM"),
    ("CC1(C)SCCN(S(=O)(=O)c2ccc(-c3ccc(Br)cc3)cc2)[C@H]1C(=O)O [Example 1]", "0.006 µM"),
    ("CCc1ccc(-c2ccc(S(=O)(=O)N3CCSC(C)(C)[C@@H]3C(=O)O)cc2)cc1 [Example 47]", "0.0061 µM"),
    ("COc1cc(-c2ccc(S(=O)(=O)N3CCSC(C)(C)[C@@H]3C(=O)O)cc2)cc(OC)c1OC [Example 55]", "8.8 µM"),
    ("CC1(C)SCCN(S(=O)(=O)c2ccc(-c3ccc(Oc4ccccc4)cc3)cc2)[C@H]1C(=O)O [Example 40]", "0.17 µM"),
    ("CC1(C)SCCN(S(=O)(=O)c2ccc(-c3ccc(Cl)cc3Cl)cc2)[C@H]1C(=O)O [Example 56]", "0.81 µM"),
    ("CC1(C)SCCN(S(=O)(=O)c2ccc(-c3ccc(-c4ccccc4)c(F)c3)cc2)[C@H]1C(=O)O [Example 53]", "0.0043 µM"),
]
